Values from paper PMC10397247

- target: T1, 4H249-AA
- T1 chain: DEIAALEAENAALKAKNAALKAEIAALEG
- assay name: two-hybrid library CCmax;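 note: natural log of median RNA to DNA barcode read ratio; higher means stronger binding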
- condition label: mean of both orientations
We begin with a simple list: items and their reported interaction score.

- binder: "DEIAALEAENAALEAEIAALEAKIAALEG [4H133-AA]"
  interaction score: 0.33
- binder: "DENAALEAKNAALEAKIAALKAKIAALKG [4H1454-AA]"
  interaction score: -1.11
- binder: "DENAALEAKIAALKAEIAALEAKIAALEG [4H1349-AA]"
  interaction score: -2.14
- binder: "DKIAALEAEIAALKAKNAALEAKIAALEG [4H2165-AA]"
  interaction score: -1.16
- binder: "DKIAALEAEIAALKAEIAALKAENAALKG [4H2124-AA]"
  interaction score: -1.78
- binder: "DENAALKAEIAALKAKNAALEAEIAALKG [4H1650-AA]"
  interaction score: -1.71
- binder: "DENAALKAKIAALKAKNAALKAEIAALEG [4H1913-AA]"
  interaction score: -1.83
- binder: "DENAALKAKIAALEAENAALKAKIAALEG [4H1821-AA]"
  interaction score: -1.68
- binder: "DENAALKAKIAALKAENAALEAKIAALKG [4H1878-AA]"
  interaction score: 1.34
- binder: "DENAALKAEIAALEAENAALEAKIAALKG [4H1558-AA]"
  interaction score: 1.51
- binder: "DEIAALEAENAALEAEIAALEAEIAALKG [4H130-AA]"
  interaction score: 1.18
- binder: "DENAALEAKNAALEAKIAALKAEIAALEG [4H1449-AA]"
  interaction score: -1.66
- binder: "DENAALEAENAALKAKIAALKAKIAALKG [4H1262-AA]"
  interaction score: -0.555
- binder: "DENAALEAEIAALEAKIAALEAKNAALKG [4H1064-AA]"
  interaction score: -2.06
- binder: "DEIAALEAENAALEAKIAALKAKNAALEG [4H175-AA]"
  interaction score: 0.000294
- binder: "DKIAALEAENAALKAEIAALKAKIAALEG [4H2253-AA]"
  interaction score: -1.56
- binder: "DENAALKAKIAALEAKIAALEAENAALKG [4H1828-AA]"
  interaction score: -1.5
- binder: "DKIAALEAKIAALEAKIAALEAKNAALEG [4H2343-AA]"
  interaction score: -1.75
